Answer each item with its documented λmax.
PROCEDURE_SUMMARY: Absorption spectrum of optical filters containing the cyanine compound (λmax, half bandwidth)
Assay type: physicochemical
PARTICULARS: Example 3: PET-protected glass plate with dye-containing acrylic binder layer
Please respond with the number in nm and leave the unit unwritten.

What does the record list as λmax for Cc1[nH]c2ccc(F)cc2c1C1=C([O-])/C(=C/C2=[N+](C)c3ccccc3C2(C)C)C1=O ?
590

What does the record list as λmax for Cn1c(-c2ccccc2)c(C2=C([O-])/C(=C/C3=[N+](C)c4ccccc4C3(C)C)C2=O)c2ccccc21 ?
606

What does the record list as λmax for Cc1c(C2=C([O-])/C(=C/C3=[N+](C)c4ccccc4C3(C)C)C2=O)c2ccccc2n1C ?
602

What does the record list as λmax for Cc1c(C2=C([O-])/C(=C/C3=[N+](C)c4ccccc4C3(C)C)C2=O)c2cc([N+](=O)[O-])ccc2n1CCC(C)C ?
597

What does the record list as λmax for CC(C)CC[N+]1=C(/C=C2\C(=O)C(c3cn(C)c4ccccc34)=C2[O-])C(C)(C)c2ccccc21 ?
587
